Source of measurements: patent US20240246941A1

biological target: interaction between GST-MAGEA11 MHD and FAM-PCF11_4 peptide (MAGE-A11:PCF11) (Homo sapiens (Human)); assay: TR-FRET dose response competition assay for disruption of MAGE-A11:PCF11 binding; settings: Table 5, dose response TR-FRET screening of 59 quinoline compounds against MAGE-A11:PCF11; read-out: TR-FRET IC50
pIC50: −log10 of the molar value.
quantityMeasured: pIC50

// recorded pIC50 for Clc1ccc(CN(CCCCNc2ccnc3cc(Cl)ccc23)Cc2ccccc2)c(Cl)c1 : < 4.15

Per the records, this compound ( CCCN(CCCNc1ccnc2cc(Cl)ccc12)Cc1ccc(-c2ccccc2)cc1 ) has pIC50 equal to < 4.15

The recorded pIC50 for CCCN(CCCNc1ccnc2cc(C(F)(F)F)ccc12)Cc1ccc(CC)cc1 is < 4.15

# compound CCC(C)CN(CCCCNc1ccnc2cc(Cl)ccc12)Cc1ccccc1 (centres unmarked) ; its pIC50 = < 4.15

Short answer for CCCN(CCCNc1ccnc2cc(Cl)ccc12)Cc1cc(C(F)(F)F)ccc1OC : pIC50 was < 4.15

Input c1coc(CNCCCNc2ccnc3cc(-c4cccc5ccccc45)ccc23)c1 . Output pIC50: < 4.15

Measured pIC50 of FC(F)(F)Oc1ccc(CN(CCCCNc2ccnc3cc(Cl)ccc23)Cc2ccccc2)cc1 : < 4.15

What the record says about C=C1C=C(C)C=C(C)C(CN(CCCNc2ccnc3cc(Cl)ccc23)Cc2ccccc2)=C1 : pIC50 is < 4.15

In plain terms, Fc1ccc(CN(CCCCNc2ccnc3cc(Cl)ccc23)Cc2ccccc2)cc1 has a documented pIC50 of < 4.15

// pIC50 lookup, compound = Cc1ccc(C)c(CN(CCCCNc2ccnc3cc(Cl)ccc23)Cc2ccccc2)c1 , result: < 4.15

Record summary for CCCN(CCCNc1ccnc2cc(C(F)(F)F)ccc12)CCC(C)(C)C : reported pIC50 = < 4.15

// recorded pIC50 for CCCN(CCCNc1ccnc2cc(Cl)ccc12)Cc1ccc2[nH]ccc2c1 : 5.55

Recorded pIC50 (compound CCCCCN(CCC)CCCNc1ccnc2cc(C(F)(F)F)ccc12 ): < 4.15

pIC50 in this record for CCCN(CCCNc1ccnc2cc(C(F)(F)F)ccc12)CC1CCCCC1 : < 4.15

The recorded pIC50 for Clc1ccc(Oc2ccc3c(NCCCNCc4ccco4)ccnc3c2)cc1 is < 4.15

pIC50 reading for FC(F)(F)c1ccc2c(NCCCNCc3csc4ccccc34)ccnc2c1 : < 4.15

The compound CCCN(CCCNc1ccnc2cc(Cl)ccc12)Cc1c(C)cc(C)cc1C showed pIC50 equal to < 4.15

Kindly note the recorded pIC50 for Clc1ccc2c(NCCCNCc3ccc[nH]3)ccnc2c1 , which is 4.64

The recorded pIC50 for Clc1ccc2c(NCCCN(Cc3ccccc3)Cc3c[nH]c4ccccc34)ccnc2c1 is < 4.15

Input CCCN(CCCNc1ccnc2cc(Cl)ccc12)Cc1ccc2ccccc2c1 . Output pIC50: < 4.15

###

target: interaction between GST-MAGEA11 MHD and FAM-PCF11_4 peptide (MAGE-A11:PCF11) (Homo sapiens (Human), UniProt P43364); assay: TR-FRET dose response competition assay for disruption of MAGE-A11:PCF11 binding; conditions: Dose response TR-FRET screening of nine scaffold groups against MAGE-A11:PCF11; read-out: consensus IC50
Sequence (P43364 218-429): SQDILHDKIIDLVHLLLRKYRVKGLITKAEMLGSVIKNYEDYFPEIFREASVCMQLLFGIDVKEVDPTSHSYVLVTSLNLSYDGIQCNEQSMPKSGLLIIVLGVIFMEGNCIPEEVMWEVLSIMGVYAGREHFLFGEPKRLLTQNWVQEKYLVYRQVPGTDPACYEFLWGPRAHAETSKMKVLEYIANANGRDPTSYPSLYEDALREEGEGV
Give pIC50 for every item shown.
# pIC50: negative log10 of molar concentration; output just the value

Kindly note the recorded pIC50 for COc1cccc(Oc2ccc3c(NCCCNCc4cccc(OC)c4O)ccnc3c2)c1 , which is 4.16

Item: COc1ccc(Oc2ccc3c(NCCCNCc4cccc(OC)c4O)ccnc3c2)cc1 | pIC50: 4.54

Lookup result for COc1cc2nc(N3CCN(C(=O)C4COc5ccccc5O4)CC3)nc(N)c2cc1OC (centres unmarked) ; measured pIC50: 4.24

The measured pIC50 associated with CCCCn1c(=O)[nH]c(=O)c2c1nc(-c1ccc(C(F)(F)F)cc1)n2C reads 4.16

The reported value for CCCCn1c(=O)[nH]c(=O)c2c1nc(-c1ccc(OCCC)c(OCC)c1)n2CCOC in terms of pIC50 is 4.16

# pIC50 of CN(C)CCCNCc1ccc2[nH]c3ccccc3c2c1 = 4.16

Lookup result for COc1cccc(CNCCCNc2ccnc3cc(Oc4ccc(F)cc4)ccc23)c1O ; measured pIC50: 4.21

Reported pIC50 for CCOc1cc(C2Nc3ccccc3C(=O)N2Cc2ccccc2)ccc1O (centres unmarked) was 4.16

The molecule identified as CCCCOC(=O)c1ccc(NC2=C(Cl)C(=O)c3ccccc3C2=O)cc1 registered its pIC50 at 4.16

pIC50 for Cn1c2ccccc2c2cc(C3Nc4ccccc4C(=O)N3Cc3ccccc3)ccc21 (centres unmarked) is 4.16

Item: CCCn1c(-c2cc(Br)ccc2F)nc2c1c(=O)[nH]c(=O)n2Cc1ccccc1 | pIC50: 4.16

Value of measured pIC50 for the entry Cc1cc(C)cc(NC2=C(N)C(=O)c3ccccc3C2=O)c1 : 4.26

Record CCCCCn1c(-c2ccc(F)c(Br)c2)nc2c1c(=O)[nH]c(=O)n2CCCC , field pIC50: 5.58

Just so you know, measured pIC50 for COCC(C)NC(=O)Cn1cnc2cc(-c3ccc(Br)cc3)sc2c1=O (centres unmarked) came out at 4.16

Note to self: pIC50 recorded for CCCn1c(=O)[nH]c(=O)c2c1nc(-c1cccc(C)c1)n2CCOC was 4.16

The molecule identified as Fc1cccc(C(F)(F)F)c1CNCCCNc1ccnc2cc(C(F)(F)F)ccc12 registered its pIC50 at 4.16

The measured pIC50 associated with Fc1cccc(CNCCCNc2ccnc3cc(C(F)(F)F)ccc23)c1 reads 4.16

According to the records, this molecule COc1ccc(F)cc1CNCCCNc1ccnc2cc(-c3cccc4ccccc34)ccc12 displays pIC50 of 4.99

// pIC50 lookup, molecule = Cc1ccc(-c2nc(S(=O)(=O)c3ccccc3)c(N3CCOCC3)o2)cc1 , result: 4.16

pIC50 reading for O=C1C(Cl)=C(NCCN2CCOCC2)C(=O)c2ncccc21 : 5.65

response.value for CCOC(=O)N1CCN(Cc2ccc3c(c2)c2ccccc2n3CC)CC1 (field: pIC50) = 4.53

pIC50 reported for this molecule O=S(=O)(c1ccc(Cl)cc1)c1nc(-c2ccc(Cl)cc2)oc1N1CCOCC1 : 4.16

Data point: COCCCn1c(-c2cc(Br)ccc2F)nc2c1c(=O)[nH]c(=O)n2Cc1ccccc1 ; pIC50 = 4.16

# pIC50 of Cc1nc2cc(-c3ccccc3)sc2c(=O)n1N = 4.16

Per the record, CCCS(=O)(=O)N1CCN(Cc2ccc3c(c2)c2ccccc2n3CC)CC1 has pIC50 of 4.72

The molecule listed as CCCn1c(=O)c2nc(-c3ccc(OCC(=O)Nc4ccc(C#N)cc4)cc3)[nH]c2n(CCC)c1=O has a reported pIC50 of 4.16

pIC50 measured on Cc1ccc(-c2nc(C#N)c(N3CC(C)OC(C)C3)o2)cc1 (centres unmarked) = 4.16

Cc1ccc(S(=O)(=O)c2nc(-c3cccc([N+](=O)[O-])c3)oc2N2CCOCC2)cc1 has a reported pIC50 of 5.02

Please fill in: pIC50 reported for CCCn1c(=O)[nH]c(=O)c2c1nc(-c1ccc(OC(F)F)c(OC)c1)n2CCOC = 4.16

Sample CCn1c2ccccc2c2cc(CNCC(C)O)ccc21 (centres unmarked) ; pIC50 observed: 4.16

// recorded pIC50 for CCCNC1=C(Cl)C(=O)c2ccccc2C1=O : 4.16

GET /value?item= CC(=O)Nc1ccc(NC2=C(Cl)C(=O)c3ccccc3C2=O)cc1 &field=pIC50 returns 4.16

Looking up CC(=O)N(C1=C(Cl)C(=O)c2ccccc2C1=O)c1ccc(Br)cc1 , I see its pIC50 listed as 4.16

Per the record, CCCN1C(=O)c2ccccc2NC1c1ccc(O)c(OC)c1 (centres unmarked) has pIC50 of 4.16

molecule CCCn1c(-c2ccc(C#N)cc2)nc2c1c(=O)[nH]c(=O)n2Cc1ccccc1 , pIC50 observed: 4.16
